What Tm was measured for each of the following?
B1: D96H, Q93D82 (parent)
chain: MSTAIVTNVKHFGGMGSALRLSEAGHTVACHDESFKQKDELEAFAETYPQLKPMSEQEPAELIEAVTSAYGQVDVLVSNDIFAPEFQPIDKYAVEDYRGAVEALQIRPFALVNAVASQMKKRKSGHIIFITSATPFGPWKELSTYTSARAGACTLANALSKELGEYNIPVFAIGPNYLHSEDSPYFYPTEPWKTNPEHVAHVKKVTALQRLGTQKELGELVAFLASGSCDYLTGQVFWLAGGFPMIERWPGMPE

variants of: B1; settings: Rhizobium radiobacter; pH 7.7; Thermal; CD; Phosphate 5mM; structure 1PWX; whole UniProt chain shown
One number for each entry, in °C.

[
  {
    "variant": "D96H",
    "unit_spec": "°C",
    "Tm": 56
  },
  {
    "variant": "T134V",
    "unit_spec": "°C",
    "Tm": 68
  },
  {
    "variant": "H198Y",
    "unit_spec": "°C",
    "Tm": 62.5
  },
  {
    "variant": "C153H",
    "unit_spec": "°C",
    "Tm": 53.5
  },
  {
    "variant": "A60R",
    "unit_spec": "°C",
    "Tm": 66.5
  }
]

Look at each variant and report its Tm.
1. T213N
2. A60L
3. K140P
4. T7F
5. D80V

[A]
61.5
63
54.5
65
64

Look at each variant and report its Tm.
1. E197K
2. A69K
3. S22A
4. H126Y

[A]
1. 67.5
2. 63.5
3. 64.5
4. 63.5

Look at each variant and report its Tm.
1. T154I
2. N113Q
3. T144I

[A]
1. 62
2. 61.5
3. 57

Look at each variant and report its Tm.
1. A83Q
2. E58Q
3. Q37D
4. E64K
5. E165P

[A]
1: 65.5; 2: 67.5; 3: 65; 4: 65; 5: 57.5
